System: C57BL/6J mice
Assay: In vivo expression by IM, luciferase RNA-LNPs, whole-body/injection site muscle/organ luminescence
Settings: IM 1.0 mg/kg, 24 h post injection, male C57BL/6J mice N=3, Formulation 001, RNA 331
Protocol: 6-8 week old, male C57BL/6J mice (N=3) were injected with 1.0 mg*kg−1 of RNA-LNPs encoding for firefly-luciferase by intramuscular injection. At 24-hours post injection, animals were intraperitoneally injected with 15 mg/ml of Luciferin substrate and whole-body/injection site muscle/liver/spleen/kidney/heart/lung luminescence were determined by a bioluminescent in vivo imaging system (IVIS).
The reader will find reported Lung (p/s) values listed item by item below.
result.type: Lung (p/s)

{"compound": "CCCCCCCC/C=C\\CCCCCCCC(=O)NC(COC(=O)NCCN1CCCCC1)C(=O)OCCCCCCCCOC(=O)C(CCCCCC)CCCCCCCC (stereo not shown)", "measurement.target": "C57BL/6J mice", "result.type": "Lung (p/s)", "value.measured": "3.11E+05"}
{"compound": "CCCCC/C=C\\C/C=C\\CCCCCCCC(=O)NC(COC(=O)NCCN1CCCCC1)C(=O)OCCCCCC(=O)OCC(CCCCCCCC)CCCCCCCCCC (stereo not shown)", "measurement.target": "C57BL/6J mice", "result.type": "Lung (p/s)", "value.measured": "1.56E+06"}
{"compound": "CCCCCCCC/C=C\\CCCCCCCC(=O)NC(COC(=O)NCCN1CCCCCC1)C(=O)OCCCCCCCCOC(=O)C(CCCCCC)CCCCCCCC (stereo not shown)", "measurement.target": "C57BL/6J mice", "result.type": "Lung (p/s)", "value.measured": "2.10E+06"}
{"compound": "CCCCC/C=C\\C/C=C\\CCCCCCCC(=O)NC(COC(=O)NCCN1CCCCC1)C(=O)OCCCCCCCC(=O)OC(CCCCCCCC)CCCCCCCC (stereo not shown)", "measurement.target": "C57BL/6J mice", "result.type": "Lung (p/s)", "value.measured": "1.24E+06"}

====

test system: Hep G2 cells; test: In vitro toxicity: Hep G2 cell viability by CellTiter-Glo; type: cell-based; settings: 1 μg/mL RNA-LNPs, 72 hours post transfection, cell only = 100%, Formulation 001, RNA 331
The reader will find reported In vitro cell viability (%) (Mean) values listed item by item below.

{"molecule": "CCCCC/C=C\\C/C=C\\CCCCCCCC(=O)N[C@H](COC(=O)NCCN1CCCCCC1)C(=O)OCCCCCC(=O)OC(CCCCCCCC)CCCCCCCC", "In vitro cell viability (%) (Mean)": 75.29}
{"molecule": "CCCCC/C=C\\C/C=C\\CCCCCCCC(=O)NC(COC(=O)NCCN1CCCCC1)C(=O)OCCCCCC(=O)OCC(CCCCCCCC)CCCCCCCCCC (stereo not drawn)", "In vitro cell viability (%) (Mean)": 71.13}
{"molecule": "CCCCC/C=C\\C/C=C\\CCCCCCCC(=O)NC(COC(=O)NCCN1CCCCCC1)C(=O)OCCCCCCCC(=O)OC(CCCCCCCC)CCCCCCCC (stereo not drawn)", "In vitro cell viability (%) (Mean)": 67.09}

====

experiment: LNP size and polydispersity index (PDI) by dynamic light scattering (Zetasizer); format: physicochemical; conditions: Formulation No. 001, RNA No. 331
result.type: Size (nm)

{"compound": "CCCCCCCCCCC(CCCCCCCC)COC(=O)CCCCCOC(=O)NC(COC(=O)NCCN1CCCCCC1)C(=O)OCCCCCC(=O)OCC(CCCCCCCC)CCCCCCCCCC (stereo not drawn) [Lipid 1021]", "value.measured": 57.55}
{"compound": "CCCCCCCCCCC(CCCCCCCC)COC(=O)CCCCCOC(=O)NC(COC(=O)NCCN1CCCC1)C(=O)OCCCCCC(=O)OCC(CCCCCCCC)CCCCCCCCCC (stereo not drawn) [Lipid 1019]", "value.measured": 68.78}
{"compound": "CCCCCCCC/C=C\\CCCCCCCC(=O)NC(COC(=O)NCCN1CCCCC1)C(=O)OCCCCCCCCOC(=O)C(CCCCCC)CCCCCCCC (stereo not drawn) [Lipid 700]", "value.measured": 62.57}
{"compound": "CCCCCCCCCCC(CCCCCCCC)COC(=O)CCCCCOC(=O)NC(COC(=O)NCCN1CCCCC1)C(=O)OCCCCCC(=O)OCC(CCCCCCCC)CCCCCCCCCC (stereo not drawn) [Lipid 1020]", "value.measured": 57.55}
{"compound": "CCCCC/C=C\\C/C=C\\CCCCCCCC(=O)NC(COC(=O)NCCN1CCCCCC1)C(=O)OCCCCCC(=O)OCC(CCCCCCCC)CCCCCCCCCC (stereo not drawn) [Lipid 729]", "value.measured": 71.29}
{"compound": "CCCCCCCCCCC(CCCCCCCC)COC(=O)CCCCCOC(=O)NC(COC(=O)NCCN(C)C)C(=O)OCCCCCC(=O)OCC(CCCCCCCC)CCCCCCCCCC (stereo not drawn) [Lipid 1017]", "value.measured": 69.70}
